B1: POU domain, class 5, transcription factor 1, residues 134 to 212; numbered along this chain, Q01860 (parent)
chain: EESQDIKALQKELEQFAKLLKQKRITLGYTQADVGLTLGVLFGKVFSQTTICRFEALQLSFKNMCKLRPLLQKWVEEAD

Variants of: B1
method: abundance fitness (aPCA) (normalised: wild type 0, dead -1); higher = more abundant; growth selection in yeast, the domain comes from the species named
condition-context: Homo sapiens
Form field: abundance fitness (one value per entry).
property-label: abundance fitness

>>> df
                            residue_sequence     property_label  reported_measurement
 0  EESQDIKALQKELEQFAKLLKQKRITLGYTQADVGLTLGVLFGDVFSQTTICRFEALQLSFKNMCKLRPLLQKWVEEAD [K44D]  abundance fitness                -0.262
 1  EESQDIKALQKELEQFAKLLKQKRITLGYTQADVGLTLGVLFGKVFSQTTICRFEALQLEFKNMCKLRPLLQKWVEEAD [S60E]  abundance fitness                -0.173
 2  EESQDIKALQKELEQFAKLLKQKRITVGYTQADVGLTLGVLFGKVFSQTTICRFEALQLSFKNMCKLRPLLQKWVEEAD [L27V]  abundance fitness                -0.588
 3  EESQDIKALQKELEQFAKLLKQKSITLGYTQADVGLTLGVLFGKVFSQTTICRFEALQLSFKNMCKLRPLLQKWVEEAD [R24S]  abundance fitness                -0.361
 4  EESQDIKALQKELEQFAKLLKQKRITLGYTQADVQLTLGVLFGKVFSQTTICRFEALQLSFKNMCKLRPLLQKWVEEAD [G35Q]  abundance fitness                -0.039
 5  EESQDIKALQKELEQRAKLLKQKRITLGYTQADVGLTLGVLFGKVFSQTTICRFEALQLSFKNMCKLRPLLQKWVEEAD [F16R]  abundance fitness                -0.394
 6  EESQDMKALQKELEQFAKLLKQKRITLGYTQADVGLTLGVLFGKVFSQTTICRFEALQLSFKNMCKLRPLLQKWVEEAD [I6M]  abundance fitness                   0.1
 7  EESQDIKALQKELEQFAKLLKQKRITLGYTQADVGLTLGVLFGKVFSQTTICRFEALQTSFKNMCKLRPLLQKWVEEAD [L59T]  abundance fitness                -0.533
 8  EESQDIKALCKELEQFAKLLKQKRITLGYTQADVGLTLGVLFGKVFSQTTICRFEALQLSFKNMCKLRPLLQKWVEEAD [Q10C]  abundance fitness                -0.477
 9  EESQDIKALQKELEQFAKLLKQKRITLGYTQADVGLTLGVLFGKVFSQTTICRFEALQLSFKNMCKLRMLLQKWVEEAD [P69M]  abundance fitness                -0.662
10  EESQDIKALQKELEMFAKLLKQKRITLGYTQADVGLTLGVLFGKVFSQTTICRFEALQLSFKNMCKLRPLLQKWVEEAD [Q15M]  abundance fitness                -0.184
11  EESQDIKALQKELEQFAKLLKQKRITLGYTQADVGLTLGVLFGKVFSQTTICRFEALQLSFRNMCKLRPLLQKWVEEAD [K62R]  abundance fitness                -0.143
12  EESQDIKALQKELEQFAKLLKQKRITLGYTQADVGLTLGVLFGKVFSQTTICRFEALQLSFKNMCKLRPLLQKWVEAAD [E77A]  abundance fitness                -0.124
13  EESQDIKALQKELEQFAKLLKQKRITLGYTQADVGLTLGVLFGKVFSQTTICGFEALQLSFKNMCKLRPLLQKWVEEAD [R53G]  abundance fitness                -0.421
14  EESQDIKALQKELEQFAKLLKQKRITLGVTQADVGLTLGVLFGKVFSQTTICRFEALQLSFKNMCKLRPLLQKWVEEAD [Y29V]  abundance fitness                -0.216
15  EESQDIKALQKELEQFAKLLGQKRITLGYTQADVGLTLGVLFGKVFSQTTICRFEALQLSFKNMCKLRPLLQKWVEEAD [K21G]  abundance fitness                -0.707
16  EESQDIKALQKELEQFAKLLKQKRITLGYTQADVGLTLGVLFNKVFSQTTICRFEALQLSFKNMCKLRPLLQKWVEEAD [G43N]  abundance fitness                -0.341
17  EESQDIKALQKELEQFAKLLKQKRITLGYTQADVGLTLGVLFGKVFSQTTICRFSALQLSFKNMCKLRPLLQKWVEEAD [E55S]  abundance fitness                -0.418
18  EESQDIKALQKELEQFAKLLKQKRITLGYTQADVGLTLGVLFGKVFSQTTICRFEALQLSFKNMCKLRPLLQKVVEEAD [W74V]  abundance fitness                -0.264
19  EESQDIKALQKELEQFAKLLKQKRITLGYTQADVGLTLGVLFGKVFSQTEICRFEALQLSFKNMCKLRPLLQKWVEEAD [T50E]  abundance fitness                 0.231
20  EESQDIKALQKELEQFAKLLKQKRITLGYTQADVGLTLGVLFGKVFSQQTICRFEALQLSFKNMCKLRPLLQKWVEEAD [T49Q]  abundance fitness                 0.206
21  EESQDIKALQKELEQFAKLLKQKRITLGYTQADVGLTLGVLFGKVFSQTTIRRFEALQLSFKNMCKLRPLLQKWVEEAD [C52R]  abundance fitness                  0.47
22  EESQDIKALQKELEQFAKLLKQKRITLGYTQADVGLTLGVLFGKVFSQTTICRFEADQLSFKNMCKLRPLLQKWVEEAD [L57D]  abundance fitness                -0.509
23  EESQDIKALQKELEQFAKLLKQKRITLGYTQADVGLTLGVLFGKVFSQTTICRFEALQLSFKNMCKLRPLLQKWEEEAD [V75E]  abundance fitness                -0.353
24  EESQDIKALQKELEQFAKLLKQKRITLWYTQADVGLTLGVLFGKVFSQTTICRFEALQLSFKNMCKLRPLLQKWVEEAD [G28W]  abundance fitness                -0.813
25  EESQDIKALQKELEQFAKLLKQKRITLGYTQADVGLTLGVLFGKVFSQTTICRFEWLQLSFKNMCKLRPLLQKWVEEAD [A56W]  abundance fitness                -0.812
26  EESQDIKALQKELEQFAKLLKQKRITLGYTQADVGLTLGVLFGKVFSQTTICRFEALQLSFKNMCKLDPLLQKWVEEAD [R68D]  abundance fitness                -0.621
27  EESQDIKALQKELEQFAKLLKQKRITLGYTQADVGLTLGVLFGKVFSQTTICRFKALQLSFKNMCKLRPLLQKWVEEAD [E55K]  abundance fitness                -0.495
28  EESQDIKALQKELEQFAKLLKQKRITLGYTQADVGLTLGVLGGKVFSQTTICRFEALQLSFKNMCKLRPLLQKWVEEAD [F42G]  abundance fitness                -0.091
29  EESQDIKALQYELEQFAKLLKQKRITLGYTQADVGLTLGVLFGKVFSQTTICRFEALQLSFKNMCKLRPLLQKWVEEAD [K11Y]  abundance fitness                 0.067
30  EESQDIKALQKELEQFAKLLKQKRITLGYTQADVGLTLGVLFGKVFSQTTICRFEALQLSFKNMCKLRPLLQYWVEEAD [K73Y]  abundance fitness                -0.595
31  EESQDIKALQKELEQFAKLLKQKRITLGYTQADVGLTLGVLFGKVFSQTTICRFEALQLSFKNMCKLRNLLQKWVEEAD [P69N]  abundance fitness                -0.008
32  EESQDIKALQKELEQFAKLLKQKRITLGYTQADVGLTLGVLFGKVFSQTTICRFEALQLSFKNMCKLRPVLQKWVEEAD [L70V]  abundance fitness                -0.406
33  EESQDIKALQKELEQFAKLLKQKRITLGYTQHDVGLTLGVLFGKVFSQTTICRFEALQLSFKNMCKLRPLLQKWVEEAD [A32H]  abundance fitness                -0.487
34  EESQDIKALQKELEQFAKLLKQKRITQGYTQADVGLTLGVLFGKVFSQTTICRFEALQLSFKNMCKLRPLLQKWVEEAD [L27Q]  abundance fitness                -0.602
35  EESQDIKALQKELEQFAKLLKQKRITLGYTQADVGLTLGVLFGKVFSQTTICRFEALQLSFKNMCKLRKLLQKWVEEAD [P69K]  abundance fitness                -0.304
36  EESQDIKALQKELEDFAKLLKQKRITLGYTQADVGLTLGVLFGKVFSQTTICRFEALQLSFKNMCKLRPLLQKWVEEAD [Q15D]  abundance fitness                 0.089
37  EESQDIKALQKEREQFAKLLKQKRITLGYTQADVGLTLGVLFGKVFSQTTICRFEALQLSFKNMCKLRPLLQKWVEEAD [L13R]  abundance fitness                 -1.06
38  EESQDIKALQWELEQFAKLLKQKRITLGYTQADVGLTLGVLFGKVFSQTTICRFEALQLSFKNMCKLRPLLQKWVEEAD [K11W]  abundance fitness                -0.198
39  EESQDIKALQKELEQFAKLLKQKRITLGYTQADVGLTLGVLFGKVFSQTTICRFEALQLSFKWMCKLRPLLQKWVEEAD [N63W]  abundance fitness                -0.832
40  EESQDIKALQKELEQFAKLLKQKRITLGYTQADAGLTLGVLFGKVFSQTTICRFEALQLSFKNMCKLRPLLQKWVEEAD [V34A]  abundance fitness                -0.742
41  EESQDIKALQKELEQFAKLLKQKRITLGYTQADVGLTLGVLFGKVFSQTTICRFEALQLAFKNMCKLRPLLQKWVEEAD [S60A]  abundance fitness                -0.273
42  EESQDIKALQKELEQFAKLLKQKRITLGYTQADVGLTLGVLFGKVCSQTTICRFEALQLSFKNMCKLRPLLQKWVEEAD [F46C]  abundance fitness                 0.311
43  EESQDIKALQKELEQFAKLLKQKRITLGYTQADVGLTLGVLFGKVFSQTTICRFEALQLSAKNMCKLRPLLQKWVEEAD [F61A]  abundance fitness                -0.147
44  EESQDIKALQKELEQFAKLLKQKRITLGYTQADVGLTLGVLFGKVFSQTWICRFEALQLSFKNMCKLRPLLQKWVEEAD [T50W]  abundance fitness                 -0.43
45  EESQDIKALQKELEQFAKLLKQKRITLGYTQADVGLTLGVLSGKVFSQTTICRFEALQLSFKNMCKLRPLLQKWVEEAD [F42S]  abundance fitness                -0.055

meta.source: the Human Domainome abundance scans (Beltran et al. 2025)
